# ASSAY TARGET: human CK2α-1 (Homo sapiens, UniProt P68400)
# Construct: purchased Promega V4,482
# Sequence (P68400 whole entry): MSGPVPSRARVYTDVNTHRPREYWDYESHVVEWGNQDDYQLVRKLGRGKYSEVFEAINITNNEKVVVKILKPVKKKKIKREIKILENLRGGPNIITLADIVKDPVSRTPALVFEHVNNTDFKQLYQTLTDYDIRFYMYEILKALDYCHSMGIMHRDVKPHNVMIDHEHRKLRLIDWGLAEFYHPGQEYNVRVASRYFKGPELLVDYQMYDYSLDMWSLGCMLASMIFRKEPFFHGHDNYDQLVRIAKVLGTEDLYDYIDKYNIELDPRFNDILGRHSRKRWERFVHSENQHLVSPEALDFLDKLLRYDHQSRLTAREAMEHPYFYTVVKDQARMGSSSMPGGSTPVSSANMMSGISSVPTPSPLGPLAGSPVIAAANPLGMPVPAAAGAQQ
# PROCEDURE TEXT: ADP-Glo kinase assay, CK2
# Format: biochemical
# MEASUREMENT CONDITIONS: 1 µM compound, Table S3; read-out: CK2 (% Inhib.)
# Protocol: The kinase functional assays were performed using a combination of kinase and 1.5 μM peptide substrate in the presence of ATP. The reaction mixture was analyzed on the Caliper LabChip 3,000 (Caliper, Hopkinton, MA) by the electrophoretic mobility shift of the fluorescent substrate and phosphorylated product. For the inhibition of human CK2α-1, the experiments were carried out with ADP-Glo kinase Assay Kit (Promega V9,101). Assays are described in detail in the Supplementary Methods and Table S6. […]
RESULT TYPE: inhibition at 1 µM (%)

COMPOUND: Oc1nc(-c2ccc(C(F)(F)F)cc2)nc2c1CSCC2 [Compound 1, XAV939, reference compound]
inhibition at 1 µM [%]: 2
//
COMPOUND: Nc1ccc(-c2nc3cc(Cl)ccc3c(=O)[nH]2)cc1
inhibition at 1 µM [%]: 1

I. O=c1[nH]c(-c2ccc(N3CCCCC3)cc2)nc2ccccc12
II. O=c1[nH]c(-c2ccc3[nH]ncc3c2)nc2ccccc12
III. CCN(CC)c1ccc(-c2nc3ccccc3c(=O)[nH]2)cc1
Query string: Thanks in advance: please rank these 3 entries by inhibition at 1 µM, highest to lowest. Output the labels ranked as instructed.
Result string: II, III, I
